Tested on: Pseudomonas aeruginosa ATCC 10145
method summary: antimicrobial activity, serial dilution method on agar plate
Format: cell-based
conditions: ATCC10145, read-out: Minimum Inhibitory Concentration, inoculum 1 × 10^6 cells/ml
Where a name gives a salt, the structure may show the parent alone.
property: MIC (µg/mL)
Write down the numeric answer in µg/mL and omit the unit.

Worked set:
- compound: "CC1CCc2c(N3CCNCC3)ccc3c(=O)c(C(=O)O)cn1c23 (stereo not drawn) [A]"
  MIC / µg/mL: 6.3
- compound: "CC1Cc2c(N3CCNCC3)c(Cl)cc3c(=O)c(C(=O)O)cn1c23 (stereo not drawn) [Compound Y]"
  MIC / µg/mL: 1.6
- compound: "O=C(O)c1cn2c3c(c(N4CCNCC4)ccc3c1=O)CCC2 [B]"
  MIC / µg/mL: 6.3
- compound: "CC1CCc2c(N3CCNCC3)c(Cl)cc3c(=O)c(C(=O)O)cn1c23 (stereo not drawn) [Compound T, hydrochloride hydrate]"
  MIC / µg/mL: 1.6

Memo: CC1Cc2c(N3CCNCC3)ccc3c(=O)c(C(=O)O)cn1c23 (stereo not drawn) [C] , reported MIC: 6.3

====

method summary: in vitro
conditions: human, 10% human serum, Inactivation Ratio
property: fraction unbound at 2 h
Lab note: jot down the number only; don't add units.

compound `CCn1cc(C(=O)O)c(=O)c2ccc(C)nc21` , fraction unbound at 2 h observed: 0.587

====

Test system: Serattia marcescens IFO 12648
method summary: antimicrobial activity, serial dilution method on agar plate
Assay type: cell-based
conditions: inoculum 1 × 10^8 cells/ml; read-out: Minimum Inhibitory Concentration
property: MIC (µg/mL)
Please give a number only; it is taken to be in µg/mL.

Value of measured MIC for the entry Cc1ccc(S(=O)(=O)N2CCN(c3ccc4c(=O)c(C(=O)O)cn5c4c3CCC5)CC2)cc1 [Compound S] : 6.3

Documented MIC of CC1(C)SC2C(NC(=O)C(NC(=O)c3cn4c5c(c(N6CCNCC6)cc(Cl)c5c3=O)CCC4)c3ccccc3)C(=O)N2C1C(=O)O (stereo not drawn) [Compound K, reference compound] : 12.5

Briefly, MIC measured for CC(=O)N1CCN(c2ccc3c(=O)c(C(=O)NC(C(=O)NC4C(=O)N5C4SC(C)(C)C5C(=O)O)c4ccccc4)cn4c3c2CCC4)CC1 (stereo not drawn) [H] : 50

// sample COc1ccc(CN2CCN(c3c(Cl)cc4c(=O)c(C(=O)O)cn5c4c3CCC5C)CC2)cc1 (stereo not drawn) [g] , its MIC was 0.39

Measured MIC, CC1CCc2cc(F)cc3c(=O)c(C(=O)O)cn1c23 (stereo not drawn) [F] : 0.8

In plain terms, CC1CCc2c(N3CCN(C(=O)C(F)(F)C(F)(F)F)CC3)c(Cl)cc3c(=O)c(C(=O)O)cn1c23 (stereo not drawn) [d] has a documented MIC of 0.2

====

Test system: Serattia marcescens IFO 12648
method summary: antimicrobial activity, serial dilution method on agar plate
Format: cell-based
conditions: inoculum 1 × 10^6 cells/ml; read-out: Minimum Inhibitory Concentration
property: MIC (µg/mL)
Give the value, in units of µg/mL, as a plain number.

Look over these answered cases.
- compound: "CC1CCc2c(N3CCN(C)CC3)c(F)cc3c(=O)c(C(=O)O)cn1c23 (stereo not shown)"
  measurement target: "Serattia marcescens IFO 12648"
  MIC (µg/mL): 0.4
- compound: "CC1CCc2c(N3CCN(C)CC3)c(Cl)cc3c(=O)c(C(=O)O)cn1c23 (stereo not shown)"
  measurement target: "Serattia marcescens IFO 12648"
  MIC (µg/mL): 0.4

Briefly, MIC measured for CC1Cc2c(N3CCN(C)CC3)c(Cl)cc3c(=O)c(C(=O)O)cn1c23 (stereo not shown) : 0.4

Where do these numbers come from? They come from patent US4416884A.
